Assign soluble fraction (log2) to each entry below.
experiment: soluble fraction after stress (log2 fold change); higher = more stays soluble; pooled small domains, quantitative proteomics; conditions: stress: pH 4
Give the figure by itself; no unit, no explanation.

(Q) Field request: soluble fraction (log2) | item: HMKEIYIDRGKEALEKELRKRKIPFQEFLSKENTNLLFDTLKIPSHDLEELYLEIGNGKHAASTVVNTVY
(A) -0.0339

(Q) Same question, HMNEPSSYGYAISVALDRNGLGTVKGGTLYPLLARLEQAAHVETRWEAGDGGPGRKYYTITDSGRS this time
(A) -0.41

(Q) Same question, HMLEKVLDNHIHKLRLQHKISQQELADAIGVSRKTISTVETGRFTPSVVIALKIAAHFSVSVEQVFTL this time
(A) -0.187

(Q) Same question, HMQRSVEDVFVQLRNGMDTYDMTQIEDALRILHGMELSTAQRDLLDKVQEAYNDLEYETGAALLAGFERIK this time
(A) -0.981

(Q) Same question, HMADEGFRQTVLAVLARWESKIHHGQYNALKAKVMNGNWSSFVKQVVKFQGKFIHPDAAKELLGLFG this time
(A) -1.17

(Q) Same question, HMGVPTEQEIGKRILAWRKLRGMTLQQLADKAGVGLTTIHNLETGLWYAKMPTYLYIAEALGVSLDALIYG this time
(A) 0.0266

(Q) Same question, HMQPQYSVLFSNIEEKDGGSIITLLQQGNVPYKVENGGTTILVPANRANELRLTLAAQGLPK this time
(A) 0.223

(Q) Same question, HMNQRQLQIKQMLDVAQEVFLKQLKTVFPDVSEMTIRRDLILLEDMGYAVRTHGGAVSINRF this time
(A) -1.2

* * *

assay: soluble fraction after stress (log2 fold change); higher = more stays soluble; pooled small domains, quantitative proteomics; settings: stress: pH 4
measure.name: soluble fraction (log2)
Give the figure by itself; no unit, no explanation.

(Q) Field request: soluble fraction (log2) | item: HMSNLGLQIVRTLTDAGKGVVFITHKLKEALTIADRINVLRRGKVVGDADPKTASESQIAEMMVGRPVQL
(A) 0.0653

(Q) Same question, HMRKIGDVLRLHAGGLSKRRIAVSLNIGRTAVGDYISRARRAGLGWPLPEDLSEEALERLLFPPP this time
(A) 0.151

(Q) Same question, HMELEDTYTKNLDASLARLDEYQASKGLTDEQVDEVINSLIADAENIIMGVFTPELIDSKLKAMNYDQDV this time
(A) -0.17

* * *

assay: soluble fraction after stress (log2 fold change); higher = more stays soluble; pooled small domains, quantitative proteomics; conditions: stress: pH 4
Assign soluble fraction (log2) to each entry below.
Give the figure by itself; no unit, no explanation.

(Q) Field request: soluble fraction (log2) | item: HMTRVDKLQTWLSLPREQRDWDEGALMLLQLTGNKIMYRNLSVNPEGKANFIEGKLQQYLEFRLA
(A) -1.16

(Q) Same question, HMPYSKIALQISHLLKSHGVPLSNKQIYEKLINDFQLSINYSNLTNNILPRMNSDSSINVEKVTRGYWQY this time
(A) 0.22

(Q) Same question, HMAEMLQDVLNMLSAKDREILVRYYYYYESVKQVAAEMQMSESAVKMRMSRARKKMQQELIDKG this time
(A) -0.704

(Q) Same question, HMRGFGEVGQLPSGRYRARYTGPDGGRHSAPITFVARIDAEGWLVDQERMISRGEWEPPARQ this time
(A) -0.384

(Q) Same question, HMNVPATAEAYEALLADAESVGKSLWGHEAKRFAAEQALLSAGLREVIQVDPDKARELALRLRGLLDEYRG this time
(A) -1.24

(Q) Same question, HMDEFQLTPREQEILGLLVKGYTYKRIASELNLSYATVNRHVSNVYVKLRVHSVNEAVALAVRKGL this time
(A) -0.543

(Q) Same question, HMPGEATVPSVIGMTKAEAKAKLQASGFELGYSEFVASDKPKGEIVEQDPGAGETAKGGTEVNVKISDGS this time
(A) -0.187

(Q) Same question, HMKRLPMRKIRDVLRLSADGLSTRKIGVSLTIGRTTVQAYLDRAAEVDLSWPLPPEMSDTDLERLIYPR this time
(A) -0.119

* * *

assay: soluble fraction after stress (log2 fold change); higher = more stays soluble; pooled small domains, quantitative proteomics; conditions: stress: pH 4
Assign soluble fraction (log2) to each entry below.
Give the figure by itself; no unit, no explanation.

(Q) Field request: soluble fraction (log2) | item: HMQERTVVKGVVVQVSRDEAYVDIGYKQEIPVSKRDLAVPAPDDARDVVKVGDEIDVYIKSLGGDNGG
(A) -0.0346

(Q) Same question, HMNTETAVTKAIDQIQVMMDLRNRSVSFTRDQETGTDIIKVIDDNTGDTIRQMPSEELLTFMKNLTQ this time
(A) -0.332

(Q) Same question, HMGVGVPVTLLLEKLGEDTLSAQQIMERLGLKSRASFRKVYLVPALEQKLIEMEFPDKPNSSKQRYRR this time
(A) -0.00401

(Q) Same question, HMSNLENSLNESLSLLKSNKYNEALEILKKIEIEDSRVFFLLGTIYSVMKNINLGEEFLIKASK this time
(A) -1.32

(Q) Same question, HMNMGEKIRSLIGQFGVTSEDLKNLSVANLLIRMNQEAGDSKTKGILASLLETVNKAGVGNLTPDALGIK this time
(A) 0.064

(Q) Same question, HMNDQLIYSDFIRQVQDGQITEVTISGLNIAGTRSDGSVFNTLRPYIEDPKLIDDLLSHNVRIQGAE this time
(A) -0.632

(Q) Same question, HMHKKQEVQDSIDAAEEFMRASGVPAELITSKRAYAVKAIYADAVDKGTPDEIVKKDGMIVALISQMRS this time
(A) -0.159

(Q) Same question, HMRPPLEWGTHGEITTRTVASGYVRASARVRLWDGELQRMTATASTASDARASLQHRIAERLRFSEL this time
(A) -0.0592

(Q) Same question, HMLPQYELIKQYLRHQIETGEWPIGYRTPSEPKLAEQFSVSRMTARRALQELADQGLLSRTAGSGTFVAKP this time
(A) 0.0856

(Q) Same question, HMKVSDLIGMLGRVTGELAPTGIVLVGNKTWTAISEDASVIASGEQVQVRSVAGLILTVSHQVD this time
(A) -0.954

(Q) Same question, HMTPTFSNQDLIKAGLAGSPVAKRRRERLGELLGIGYGNAKQLLKRLDLFAIDRPTFERAVAQLDQEGK this time
(A) 0.414

(Q) Same question, HMAPETALQILEQIQINPKVTMTDLANLTGYSRRWVAQTMKQLQELNVIKRVGSTKTGYWEIIA this time
(A) -0.142

(Q) Same question, HMGSNLSFDLSQIIASRYQEKAAELGLTAPSLARTDLSPQEQATAEVVARAIIADYYDQRVAPFNDLIPQ this time
(A) -1.54

(Q) Same question, HMSTNYVQVLRAALNGVSGRKLAQQYRVSRDTVAILLRQAKIQGWQRAEDLENITEEDLVALLSG this time
(A) -0.987

(Q) Same question, HMTDLNQIGERIKGLRDALGYSPEKMASILEQKVDDYLAYEEGTKDISLSVLQRIEKEFDIDLSTLLFGT this time
(A) -1.17

(Q) Same question, HMKNDIQLKHDVEEELQWDPAVDASRFAVQAKDGVVTLSGGVDTFADKHAAEEAIRRVAGVTALVIHVDV this time
(A) -0.271

* * *

assay: soluble fraction after stress (log2 fold change); higher = more stays soluble; pooled small domains, quantitative proteomics; conditions: stress: pH 4
measure.name: soluble fraction (log2)
Give the figure by itself; no unit, no explanation.

(Q) Field request: soluble fraction (log2) | item: HMENFKVFMKAVQEVSPVPVRFDEISSGAKGYYSNTEKEIVIQNGMSESQTMKTGIHEVTHAMLHDRDF
(A) 0.22

(Q) Same question, HMGNFNDMLKYLRVREKMSQAELADKLGVSKSTVGMYELGKREPDFETLEAIADLFNVDMNFLLGK this time
(A) -0.439

(Q) Same question, HMDQSIDADIINLNFSKNIIKIEENVYYKNNNAKVNADKIEINIETKKLKISMNEQEDEVEIFAK this time
(A) -0.399

(Q) Same question, HMGTTLTKIPGIGENRARLLLRHFGSLRAVREADADALAAVKGMTRPAAEAIVRYFEQQDAEGRRD this time
(A) 0.336

* * *

Assign soluble fraction (log2) to each entry below.
test: soluble fraction after stress (log2 fold change); higher = more stays soluble; pooled small domains, quantitative proteomics; conditions: stress: pH 4
Give the figure by itself; no unit, no explanation.

(Q) Field request: soluble fraction (log2) | item: HMSRLLTTRQREVFEVATREGFWDVPRRINLSELAKVLGVAKSTLSSQLQRIESAVFHAFTDEIRRQS
(A) 0.313

(Q) Same question, HMTTTYEINDEMLKPLILEIFNKSKQRFGSTKIAPVLKREGYTASIAKVKTLMNELGIKPVNA this time
(A) 0.206

(Q) Same question, HMIEFYTMQDMFYFKLTGDNTSRERREALGKILGIGYGNATQMVSRLNNYGISKEEFSKAIEEIEKQLEA this time
(A) -1.36

(Q) Same question, HMEDPKLAQLTEQERKILDLIADGLTNRQIAEKMFLAEKTVKNYVSTILAKMGMSNRSEAAAYVARLEAG this time
(A) -0.292

(Q) Same question, HMGIKYTNQRVEILNFLKDNLSHPTVDDVYEGVKKKLTRISKATVYQNLKFLASKGLIQEVNIKGVSRFEP this time
(A) 0.22

(Q) Same question, HMELRSPMPGLIIEIPVSKGDIIKKDQSLIILEAMKMENVLTSPINGKIADIKVNVQDTVEKNNLLITFEN this time
(A) -1.23

(Q) Same question, HMLPDSQLMKEATAWFMRQAADDFSGAERRRLDAWRAQSPAHARAYHQVQALWNAPELQQAAAR this time
(A) -0.0106

(Q) Same question, HMGKIINMSKVKQVLRLHTQGVSNRRIALDLGLYKGTVNSYIRKIKDHGYDIAEVLKLDDPVLESKLFA this time
(A) 0.268
